pIC50 values for the molecules below.
target: Growth factor receptor-bound protein 2 (Homo sapiens); test: Inhibition of Grb2-SH2 domain binding to phospho-EGF receptor intracellular C-terminal domain
Sequence (P62993 whole entry, the tested form may be a part): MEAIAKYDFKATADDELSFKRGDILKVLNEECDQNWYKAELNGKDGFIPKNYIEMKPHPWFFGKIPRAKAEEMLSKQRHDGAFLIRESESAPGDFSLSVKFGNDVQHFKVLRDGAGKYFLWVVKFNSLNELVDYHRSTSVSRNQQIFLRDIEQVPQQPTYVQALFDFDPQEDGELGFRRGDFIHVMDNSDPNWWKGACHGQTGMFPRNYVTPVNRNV
Where a SMILES comes first, the peptide text is derived from it. [ ]: non-standard residue; d: D form. The star is where a group is joined. pY = N[C@@H](Cc1ccc(OP(=O)(O)O)cc1)C(=O)O; Cbz = O=C(OCc1ccccc1)*
// field semantics: pIC50 = negative decimal log of concentration (mol/L)

[
  {
    "Molecule": "CC[C@H](C)[C@H](NC(=O)[C@H](Cc1ccc(OP(=O)(O)O)cc1)NC(=O)[C@@H](N)CCC(=O)O)C(=O)N[C@@H](CC(N)=O)C(N)=O (H-E[pY]IN-NH2)",
    "Target system": "Growth factor receptor-bound protein 2 (Homo sapiens)",
    "pIC50": 5.10
  }
]

I'm curious: which pIC50 was measured for CC[C@H](C)[C@H](NC(=O)[C@H](Cc1ccc(OP(=O)(O)O)cc1)NC(=O)OCc1ccccc1)C(=O)N[C@@H](CC(N)=O)C(N)=O (Cbz-[pY]-Ile-Asn-NH2) tested on Growth factor receptor-bound protein 2 (Homo sapiens)?
5.20

Now this one: `CC[C@H](C)[C@H](NC(=O)[C@H](Cc1ccc(OP(=O)(O)O)cc1)NC(=O)OCc1cccc(N)c1)C(=O)N[C@@H](CC(N)=O)C(N)=O`
7.19

These entries and their values trace back to ChEMBL document CHEMBL1130200.
